Values compiled from BigSolDB 2.1.

Settings: in THF, 333.15 K
readout: solubility (mole fraction)
# print the numeric value only

Q: Please list solubility (mole fraction) recorded for the compound "O=P(NC1CCCCC1)(Oc1ccccc1)Oc1ccccc1"
Result: 0.567

====

Details: in benzene, 303.15 K
readout: solubility (mole fraction)
# answer = number (no unit)

Q: Please give the documented solubility (mole fraction) of "O=P(NC1CCCCC1)(Oc1ccccc1)Oc1ccccc1"
Result: 0.127

====

Conditions: in methanol, 333.15 K
readout: solubility (mole fraction)
Form field (numeric): enter value without unit.

Q: Indicate the recorded solubility (mole fraction) value for this compound: "O=P(NC1CCCCC1)(Oc1ccccc1)Oc1ccccc1"
Result: 0.356
